- MEASURED_ON: histone deacetylase (HeLa nuclear extracts)
- PROTOCOL_DESCRIPTION: In vitro assay for inhibition of histone deacetylase
- Type: biochemical
- Parameters: key: pIC50 = -log IC50
- TEST_CONDITIONS: [3H]acetylated histone H4 peptide substrate
Each entry gets F if its Enzyme activity pIC50 stays under 7, and T if its Enzyme activity pIC50 is 7 or above.

Observe how each entry below is paired with its result.
{"COMPOUND": "O=C(NO)c1ccc(N2CCC(NC(=O)C3CCc4ccccc43)CC2)nc1 (stereo not shown)", "LABEL_CLASS": "F"}
{"COMPOUND": "O=C(NO)c1cnc(N2CCC(CNC(=O)c3ccc4ccccc4c3)CC2)nc1", "LABEL_CLASS": "T"}
{"COMPOUND": "O=C(NO)c1cnc(N2CC[C@H](O)[C@H](CNS(=O)(=O)c3ccc4ccccc4c3)C2)nc1", "LABEL_CLASS": "F"}

Test whether the compound O=C(NO)c1ccc(N2CCC(NC(=O)c3ccc4ccccc4c3)CC2)cc1 records Enzyme activity pIC50 of 7 or higher. F

Test whether the compound Cn1cc(C(=O)NC2CCN(c3ccc(C(=O)NO)cn3)CC2)c2ccccc21 records Enzyme activity pIC50 of 7 or higher. F

Test whether the compound Cn1c(C(=O)NC2CCN(c3ccc(C(=O)NO)cn3)CC2)cc2ccccc21 records Enzyme activity pIC50 of 7 or higher. F

----------
Reported solubility by item:
- PROTOCOL_DESCRIPTION: Kinetic solubility in aqueous media
- Assay type: physicochemical
- TEST_CONDITIONS: aqueous buffer, kinetic from dmso stock; phosphate citrate buffer pH 7.4, turbidity by nephelometer; read-out: Solubility Score

{"SMILES": "COc1cc(C(=O)NC2CCN(c3ccc(C(=O)NO)cn3)CC2)nc2ccccc12", "RESULT_VALUE": "> 454 µM"}

Would you kindly share the measured solubility for O=C(NO)c1cnc(N2CCC(CNC(=O)c3ccc4ccccc4c3)CC2)nc1 ? < 75.8 µM

----------
Reported Enzyme activity pIC50 by item:
- MEASURED_ON: histone deacetylase (HeLa nuclear extracts)
- PROTOCOL_DESCRIPTION: In vitro assay for inhibition of histone deacetylase
- Assay type: biochemical
- Parameters: key: pIC50 = -log IC50
- TEST_CONDITIONS: [3H]acetylated histone H4 peptide substrate
Form rule: numeric answer, no unit written next to it.

Consider the worked cases shown below.
{"SMILES": "O=C(Cc1c[nH]c2ccccc12)NC1CCN(c2ccc(C(=O)NO)cn2)CC1", "OBSERVED_PROPERTY": "Enzyme activity pIC50", "RESULT_VALUE": 7.061}
{"SMILES": "O=C(NO)c1ccc(N2CCC(NC(=O)c3cc4ccccc4cn3)CC2)nc1", "OBSERVED_PROPERTY": "Enzyme activity pIC50", "RESULT_VALUE": 6.951}
{"SMILES": "COc1ccc2[nH]c(C(=O)NC3CCN(c4ccc(C(=O)NO)cn4)CC3)cc2c1", "OBSERVED_PROPERTY": "Enzyme activity pIC50", "RESULT_VALUE": 7.19}
{"SMILES": "O=C(NO)c1ccc(N2CCC(NC(=O)c3ccc4ccccc4c3)CC2)nc1", "OBSERVED_PROPERTY": "Enzyme activity pIC50", "RESULT_VALUE": 6.861}
{"SMILES": "COc1cc(C(=O)NC2CCN(c3ccc(C(=O)NO)cn3)CC2)nc2ccccc12", "OBSERVED_PROPERTY": "Enzyme activity pIC50", "RESULT_VALUE": 6.794}

Would you kindly share the measured Enzyme activity pIC50 for O=C(CC(c1ccccc1)c1ccccc1)NC1CCN(c2ccc(C(=O)NO)cn2)CC1 ? 6.909

Would you kindly share the measured Enzyme activity pIC50 for O=C(NO)c1ccc(N2CCC(NC(=O)c3cc4cc(F)ccc4[nH]3)CC2)nc1 ? 6.94
